Data provenance is patent US20250057840A1.

# Tested on: RBE cells (IDHm ICC)
# experiment.description: MTT proliferation / cell viability assay in RBE
# Format: cell-based, human
# condition.parameters: Homo sapiens, 168 h; S6K inhibitors, 7 days, cell viability by MTT; IDHm; read-out: IC50 (μM) RBE
# Method: FIGS. 46A-46C are IC50 curves of IDH WT and mutant cells lines to S6K inhibitors. IDHm cells (SNU-1079 and RBE) and IDH WT cells (CCLP1 and HuCCT1) were treated with S6K inhibitors M2698 (FIG. 46A), PF-4708671 (FIG. 46B), and LY2584702 (FIG. 46C) for 7 days, and the cell viabilities were measured by MTT assay.
Reported IC50 values for a set of molecules
Just the number in µM, nothing appended.

[
  {
    "molecule": "NC(=O)c1cccc2c(N[C@H](CN3CCC3)c3ccc(Cl)c(C(F)(F)F)c3)ncnc12 [M2698]",
    "unit.descriptor": "µM",
    "value.observed": 1.26
  }
]

Then this molecule:
Query: Please give the documented IC50 of Cn1cc(-c2ccc(F)c(C(F)(F)F)c2)nc1C1CCN(c2ncnc3[nH]ncc23)CC1 [LY2584702]
Response: 2.2
